A collection of molecules and their measured log10 IC50
TARGET OR SYSTEM: hnAChR α7/ric3 (Homo sapiens)
Construct: expressed in transfected cells
Sequence (P36544 23-502): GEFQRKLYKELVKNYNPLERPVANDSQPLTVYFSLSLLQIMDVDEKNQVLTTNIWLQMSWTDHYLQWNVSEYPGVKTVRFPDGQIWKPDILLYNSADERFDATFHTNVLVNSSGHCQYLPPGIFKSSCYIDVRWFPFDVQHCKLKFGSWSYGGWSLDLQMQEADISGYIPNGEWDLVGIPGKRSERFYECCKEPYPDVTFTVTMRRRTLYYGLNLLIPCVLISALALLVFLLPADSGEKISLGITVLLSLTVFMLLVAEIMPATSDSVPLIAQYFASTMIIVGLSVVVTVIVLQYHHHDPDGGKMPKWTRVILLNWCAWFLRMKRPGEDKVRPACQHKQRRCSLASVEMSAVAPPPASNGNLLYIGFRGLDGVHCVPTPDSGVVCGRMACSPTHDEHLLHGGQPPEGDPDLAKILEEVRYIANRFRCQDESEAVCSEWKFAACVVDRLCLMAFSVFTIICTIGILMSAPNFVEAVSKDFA
PROTOCOL NOTES: IonFlux HT electrophysiological recording of hnAChR α7/ric3 currents, inhibition of ACh (200 μM, EC80) peak current
Format: cell-based
DETAILS: hnAChR α7/ric3; 0.12-10 μM compound, 1 min preincubation, then 200 μM ACh for 1 s; holding potential −60 mV; read-out: IC50
A difference of one corresponds to tenfold IC50; all values are log10 with IC50 in nM.

Look over these answered cases.
{"SMILES STRING": "Cc1nocc1S(=O)(=O)N1CCC(c2ccc(F)cc2)CC1", "ENDPOINT VALUE": 2.60}
{"SMILES STRING": "Cc1nocc1S(=O)(=O)NCCc1ccccc1", "ENDPOINT VALUE": 3.23}
{"SMILES STRING": "Cc1nocc1S(=O)(=O)N1CCc2ccccc2CC1", "ENDPOINT VALUE": 3.46}
{"SMILES STRING": "Cc1nocc1S(=O)(=O)NCCc1ccc(F)cc1", "ENDPOINT VALUE": 3.34}

// below: log10 IC50 requested for another molecule
INPUT: Assign log10 IC50 to the following record: Cc1nocc1S(=O)(=O)N1CCN(c2ccccn2)CC1
OUTPUT: 3.81

All figures here come from patent US20200392126A1.
